# testTarget: 5-HT2A (Homo sapiens)
# Sequence (P28223 whole entry): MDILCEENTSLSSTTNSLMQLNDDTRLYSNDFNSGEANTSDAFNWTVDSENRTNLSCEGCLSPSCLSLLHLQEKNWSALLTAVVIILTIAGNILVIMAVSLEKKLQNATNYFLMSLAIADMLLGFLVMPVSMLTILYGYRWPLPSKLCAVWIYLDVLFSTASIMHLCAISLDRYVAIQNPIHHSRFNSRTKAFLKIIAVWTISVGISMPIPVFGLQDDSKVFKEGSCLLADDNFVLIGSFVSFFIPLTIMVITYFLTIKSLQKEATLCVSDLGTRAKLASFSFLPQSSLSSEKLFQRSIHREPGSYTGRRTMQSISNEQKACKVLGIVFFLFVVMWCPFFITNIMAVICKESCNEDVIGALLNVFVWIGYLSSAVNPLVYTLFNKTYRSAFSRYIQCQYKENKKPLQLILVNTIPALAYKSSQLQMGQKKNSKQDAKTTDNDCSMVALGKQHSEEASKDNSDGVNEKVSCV
# experimentDescription: Gq-mediated calcium flux assay, Flp-In 293 T-Rex inducible cells (agonist and antagonist mode)
# Format: cell-based
# Set-up: expressed in transfected cells
# testParameters: antagonist mode; read-out: EC50, antagonizes 5-HT2A
quantity: EC50 (nM)
Give the quantity in nM, number only.

Please give the measured EC50 for this compound: `COc1cc(CCNCCCCCCOCCCCc2ccccc2)c(OC)cc1Br` 1300

====

# testTarget: HiBiT-5-HT1A (Homo sapiens, UniProt P08908)
# Sequence (P08908 whole entry): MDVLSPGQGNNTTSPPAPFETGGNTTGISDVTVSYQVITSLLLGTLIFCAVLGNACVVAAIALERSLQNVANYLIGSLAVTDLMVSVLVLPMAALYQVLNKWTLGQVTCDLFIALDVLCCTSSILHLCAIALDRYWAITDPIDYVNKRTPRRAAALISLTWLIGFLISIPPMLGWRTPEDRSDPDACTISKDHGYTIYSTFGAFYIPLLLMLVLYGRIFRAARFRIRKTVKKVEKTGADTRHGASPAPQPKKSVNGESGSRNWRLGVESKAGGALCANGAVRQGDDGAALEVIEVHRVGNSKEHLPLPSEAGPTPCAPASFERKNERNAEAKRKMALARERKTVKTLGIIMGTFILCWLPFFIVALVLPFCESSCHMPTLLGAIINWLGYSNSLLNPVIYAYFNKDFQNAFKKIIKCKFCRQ
quantity: Ki

Please give the measured Ki for this compound: `COc1cc(CCNCCCCCCOCCCCc2ccccc2)c(OC)cc1Br` > 10 µM
